Target: T1, RBFOX1 RRM (Homo sapiens, UniProt Q9NWB1 109-208)
T1 sequence: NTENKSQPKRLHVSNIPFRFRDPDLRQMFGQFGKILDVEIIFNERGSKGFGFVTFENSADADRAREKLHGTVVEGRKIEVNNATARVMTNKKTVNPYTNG
Test: EMSA; HiTS-Eq, 1 nM pool, 10 min; buffer printed only for the single-RNA assays: 10 mM Tris pH 7.5, 150 mM NaCl, 3.4 mM EDTA, 0.001% NP-40, 30 C
Details: tags: His6 N-terminal (pET28a); label: 5' 32P
Whole data set: some 16,000 sequences, median “ka relative to ugcaugu” near 0.0091, cut for the highest 2% near 0.032. The full list was thinned out, with the highest values kept by preference.
Property Measured: binding signal

Worked examples, 3 binders total:
GGUACUC (DNA:RNA) RNA: GGGAGACCGGAAUUCAGAUUGUCCGGUACUCUUAAAUCCCGUCGUAGCCACCA DNA 1: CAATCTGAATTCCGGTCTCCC DNA 2: TGGTGGCTACGACGGGATT :: 0.032 KA relative to UGCAUGU
GGGUCGU (DNA:RNA) RNA: GGGAGACCGGAAUUCAGAUUGUCCGGGUCGUUUAAAUCCCGUCGUAGCCACCA DNA 1: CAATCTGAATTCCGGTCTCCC DNA 2: TGGTGGCTACGACGGGATT :: 0.0214 KA relative to UGCAUGU
GGGGAGA (DNA:RNA) RNA: GGGAGACCGGAAUUCAGAUUGUCCGGGGAGAUUAAAUCCCGUCGUAGCCACCA DNA 1: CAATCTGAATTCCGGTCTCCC DNA 2: TGGTGGCTACGACGGGATT :: 0.0242 KA relative to UGCAUGU

Alright, here's another binder for you.
Exam item: Returns the measured binding signal for the input binder. Input: GGGGUCG (DNA:RNA) RNA: GGGAGACCGGAAUUCAGAUUGUCCGGGGUCGUUAAAUCCCGUCGUAGCCACCA DNA 1: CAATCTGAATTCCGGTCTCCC DNA 2: TGGTGGCTACGACGGGATT
Marked response: 0.0492 KA relative to UGCAUGU
